target: T1, human PD-1 dimer (human PD-1-mFc or human PD-1-hFc) (human, UniProt Q15116 25-170); experiment: SPR, mAb captured, 37C;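 note: Real-time Biacore biosensor, PD-1 dimer flowed over anti-PD-1 antibody surface, rate constants fitted to a 1:1 model, KD derived as kd/ka and t½ as ln2/(60·kd)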
T1 construct: also called hPD-1-mFc; hPD1-hFc
T1 sequence (Q15116 25-170 C93S): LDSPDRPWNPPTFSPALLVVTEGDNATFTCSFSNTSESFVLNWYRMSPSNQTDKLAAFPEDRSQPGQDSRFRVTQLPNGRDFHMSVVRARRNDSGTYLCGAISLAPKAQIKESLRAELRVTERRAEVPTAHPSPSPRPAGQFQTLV
READOUT: Kd (nM)
Write the answer as a number in nM, unit excluded.

Q: // Kd lookup, key: H1M7800N (antibody, mouse IgG1, V domains shown, Human variable regions, mouse IgG1 Fc) VH: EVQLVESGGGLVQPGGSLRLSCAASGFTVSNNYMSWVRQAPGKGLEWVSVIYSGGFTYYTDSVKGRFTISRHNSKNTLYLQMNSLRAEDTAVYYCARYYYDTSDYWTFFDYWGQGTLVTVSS VL: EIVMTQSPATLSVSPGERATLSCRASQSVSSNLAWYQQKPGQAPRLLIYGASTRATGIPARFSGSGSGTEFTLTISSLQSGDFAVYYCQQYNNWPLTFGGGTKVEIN
Ans: 0.45

Q: Item: H4H7795N2 (antibody, human IgG4 S228P, kappa, V domains shown) VH: EVQVVESGGGLVEPGRSLRLSCKASGFTFDDYAMHWVRQTPGKALEWVSGISWSGNNIGYADSVKGRFTISKDDAKNSLYLQMNSLRPEDTALYYCTKDISITGTLDAFDVWGQGTMVTVSS VL: DIQMTQSPISVSASVGDRVTITCRASQGISNWLAWYQQKPGIAPKLLIYSASSLQSGVPSRFRGSGSGTDFTLTIGSLQPEDFATYYCQQAHSFPLTFGGGTKVEIKR
Ans: 1.65
